Tested on: SW-620 colon
protocol.summary: NCI tumour cell line growth inhibition, 48 h
// TGI lookup, one value per entry

| compound | TGI |
| --- | --- |
| Cc1ccc2ccc3ccc(C)nc3c2n1 | > 100 µM |
| COc1c(O)c(O)c2c(c1O)C(=O)c1cc(C)cc(O)c1C2=O | > 100 µM |
| NC(=O)Nc1ccc(C(=O)NCCCNC(=O)c2ccc(NC(N)=O)cc2)cc1 | > 100 µM |

Problem: Can you look up the measured TGI of "COc1cc(-n2cnc(-c3ccc(Cl)cc3)c2)cc(OC)c1OC" for me?
Solution: > 100 µM

Problem: Can you look up the measured TGI of "CCOC(=O)N1CCN(c2nc(C)n(-c3ccccc3)c(=S)c2C#N)CC1" for me?
Solution: > 100 µM

Problem: Can you look up the measured TGI of COc1cc([C@@H]2c3cc4c(cc3[C@@H](OC3OC5COC(C)OC5C(OC(=O)CN5CCN(C)CC5)C3OC(=O)CN3CCN(C)CC3)C3COC(=O)[C@@H]32)OCO4)cc(OC)c1OC(=O)CN1CCN(C)CC1 (stereo partly specified) for me?
Solution: > 100 µM

Problem: Can you look up the measured TGI of "N#C/C(=C1C=C/C(=N\O)C(Cl)=C\1)c1ccccc1" for me?
Solution: 12.9 µM

Problem: Can you look up the measured TGI of C=C(Br)C(C)(Br)CCC(Br)C(C)(C)Br (stereo unspecified) for me?
Solution: 70.9 µM

Problem: Can you look up the measured TGI of "NCCCCN(CCCN)Cc1ccc2ccccc2c1" for me?
Solution: > 100 µM

Problem: Can you look up the measured TGI of "CNS(=O)(=O)c1ccc2[nH]c(O)c(C3=Nc4ccccc4C3=O)c2c1" for me?
Solution: > 100 µM

Problem: Can you look up the measured TGI of "Cc1c(-c2nnc(-c3ccc(F)cc3)o2)nnn1-c1ccnc2c(C(F)(F)F)cccc12" for me?
Solution: > 100 µM

Problem: Can you look up the measured TGI of "NCCCNCCSSC/C=C\CSSCCNCCCN" for me?
Solution: > 100 µM

Problem: Can you look up the measured TGI of "Cn1ccnc1C(=O)/C=C/c1ccc(CC(=O)Nc2ccc(F)cc2)cc1" for me?
Solution: 12 µM

Problem: Can you look up the measured TGI of "COc1ccc2oc(=O)c(-c3nc4ccccc4o3)cc2c1" for me?
Solution: > 100 µM

Problem: Can you look up the measured TGI of CCC1c2[nH]c3ccccc3c2C[C@H]2C(=O)NC(CCCCNC(=O)OC(C)(C)C)C(=O)N12 (stereo partly specified) for me?
Solution: > 100 µM

Problem: Can you look up the measured TGI of CC(=O)c1ccc(NC(=O)C(=O)C(C(=O)c2ccc(Cl)c(Cl)c2)C2OC(=O)c3ccccc32)cc1 (stereo unspecified) for me?
Solution: > 100 µM

----------
Tested on: MOLT-4 leukemia
protocol.summary: NCI tumour cell line growth inhibition, 48 h; in the data active = GI50 below about 0.43 µM; inactive = the rest
Where a SMILES comes first, the peptide text is derived from it. [ ]: non-standard residue; d: D form. The star is where a group is joined. NMeF = CN[C@@H](Cc1ccccc1)C(=O)O; NMeV = CN[C@H](C(=O)O)C(C)C; Boc = CC(C)(C)OC(=O)*; OBn = c1ccc(CO*)cc1
Valid outcomes are listed here; reply with one: True for active, False for inactive

The following compounds have reported results that may help.
| compound | category.label |
| --- | --- |
| COc1cc(/C=C2\C(=O)N(c3ccccc3)c3ccccc32)cc(OC)c1OC | False |
| COc1ccc2cc(Cn3cc[n+](Cc4ccc5ccccc5c4)c3)ccc2c1 | False |
| C=Cc1cc(OC)c2c(c1)c(=O)oc1c2cc(OC)c2c(O)ccc(C3OC(C)C(O)C(C)(O)C3O)c21 (stereo not drawn) | True |
| COc1ccc(OC)c(/C=C2\COc3ccc(O)c(O)c3C2=O)c1 | False |
| CC(C)[C@@H](C(=O)N1CCC[C@H]1C(=O)OCc1ccccc1)N(C)C(=O)[C@H](C(C)C)N(C)C(=O)[C@H](Cc1ccccc1)N(C)C(=O)[C@H](NC(=O)OC(C)(C)C)C(C)C (Boc-[dV][NMeF][NMeV][NMeV]P-OBn) | False |
| COc1ccc(-c2nn(-c3cccc(NC(=O)c4cccc(C(F)(F)F)c4)c3)cc2-c2ccncc2)cc1Cl | False |
| O=C(CN1C(=O)S/C(=C\C(Cl)=C\c2ccccc2)C1=O)NCCc1ccc(O)cc1 | False |
| Clc1ccc(C2=NN[C@H](c3cn(-c4ccccc4)nc3-c3ccccc3)C2)cc1 | False |
| Cc1ccc(NC2=C(Cl)C(=O)N(Cc3ccccc3)C2=O)cc1Cl | False |
| CC1(C)N=C(N)N=C(N)N1c1cccc(CCCCOc2ccccc2)c1 | True |

Problem: So what was the verdict on "Cc1cc(C)c2nc3nc(C)cc(C)c3c(N)c2c1" in this test?
Solution: False

Problem: So what was the verdict on "C/C(=C\CCc1ccsc1)CC/C=C(\C)CCCN1CCC(CO)CC1" in this test?
Solution: False

Problem: So what was the verdict on "CCn1c(-c2nonc2N)nc2cncc(C(=O)NCCNC)c21" in this test?
Solution: False
